# Tested On: hAT1R (Homo sapiens, UniProt P30556)
# Sequence (P30556 1-359): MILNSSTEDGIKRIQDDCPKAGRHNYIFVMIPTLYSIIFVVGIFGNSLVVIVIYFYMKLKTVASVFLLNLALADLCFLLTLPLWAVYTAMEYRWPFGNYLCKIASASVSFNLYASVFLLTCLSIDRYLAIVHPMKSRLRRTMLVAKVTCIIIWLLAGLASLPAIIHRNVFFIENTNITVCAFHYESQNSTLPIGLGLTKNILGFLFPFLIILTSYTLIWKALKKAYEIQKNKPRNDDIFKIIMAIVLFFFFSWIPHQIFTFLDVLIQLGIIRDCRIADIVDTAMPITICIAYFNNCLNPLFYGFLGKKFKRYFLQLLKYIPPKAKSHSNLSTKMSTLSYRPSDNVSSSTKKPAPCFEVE
# Assay Name: FLIPR calcium flux assay, Part I: agonist activity
# Type: cell-based
# Condition Notes: ChanTest hAT1R stable cells; % MPE, percent of the maximal possible effect; read-out: hAT1R Agonist Efficacy Agonist (%) Ave
Starred links: 1 amine or outer side, 2 acyl side, 3 side chain; linkers in the order of their positions; H or OH if unused. Non-standard residues stand in square brackets, D forms with d. Residues, ends and D or L forms follow the SMILES beside them. X1 = O=C(CN(C[C@H](O)[C@@H](O)[C@H](O)[C@H](O)CO)[*:1])[*:2]; dPhe(2-Cl) = N[C@H](Cc1ccccc1Cl)C(=O)O; dPhe(2-Me) = Cc1ccccc1C[C@@H](N)C(=O)O; Chg = N[C@H](C(=O)O)C1CCCCC1
Recorded measurements of Emax, one per entry
# output: bare number, implied unit %

Reference set, count: 2
- CC(C)[C@H](NC(=O)[C@H](CCCNC(=N)N)NC(=O)CNC[C@H](O)[C@@H](O)[C@H](O)[C@H](O)CO)C(=O)N[C@@H](Cc1ccc(O)cc1)C(=O)N[C@H](C(=O)N[C@@H](Cc1c[nH]cn1)C(=O)N1CCC[C@H]1C(=O)N[C@H](Cc1ccccc1Cl)C(=O)O)C1CCCCC1 [Compound 31] (H-[X1]RVY[Chg]HP[dPhe(2-Cl)]-OH): 6
- Cc1ccccc1C[C@@H](NC(=O)[C@@H]1CCCN1C(=O)[C@H](Cc1c[nH]cn1)NC(=O)[C@@H](NC(=O)[C@H](Cc1ccc(O)cc1)NC(=O)[C@@H](NC(=O)[C@H](CCCNC(=N)N)NC(=O)CNC[C@H](O)[C@@H](O)[C@H](O)[C@H](O)CO)C(C)C)C(C)C)C(=O)O [Compound 45] (HELM PEPTIDE1{[O=C(CNC[C@H](O)[C@@H](O)[C@H](O)[C@H](O)CO)[*:2]].R.V.Y.V.H.P.[Cc1ccccc1C[C@@H](N[*:1])C(=O)O]}$$$$V2.0): 6

Next item in the queue.
Input line: Find the measured Emax of Cc1ccccc1C[C@@H](NC(=O)[C@@H]1CCCN1C(=O)[C@H](Cc1c[nH]cn1)NC(=O)[C@@H](NC(=O)[C@H](Cc1ccc(O)cc1)NC(=O)[C@@H](NC(=O)[C@H](CCCNC(=N)N)NC(=O)CNC[C@H](O)[C@@H](O)[C@H](O)[C@H](O)CO)C(C)C)C1CCCCC1)C(=O)O [Compound 46] (H-[X1]RVY[Chg]HP[dPhe(2-Me)]-OH) and report it.
Output line: 6
